- System: HCT-15 colon
- ASSAY_SUMMARY: NCI tumour cell line growth inhibition, 48 h
This section presents compounds with their documented TGI values.

The recorded TGI for C=CCNC1=C(C(=O)OCC)C(=O)CO1 is > 100 µM

The compound identified as COC(=O)c1c2c(c(C)[n+]([O-])c1C)C(=O)C=C(NCc1cccc(OC)c1)C2=O registered its TGI at 1.61 µM

So for N[C@@H]1c2c(Br)sc(Br)c2[C@H](O)[C@@H]1O , the logged TGI turned out to be > 100 µM

Briefly, TGI measured for COc1ccc(/C(Cl)=C(\C=O)c2ccc(F)cc2)cc1 : 31.2 µM

// N/N=C1\c2ccccc2C2/C(=N\N)c3ccccc3C12 (configuration not stated) : TGI value = > 100 µM

Reported TGI of CN(C)c1ccc(/C=C2\CNC/C(=C\c3ccc(N(C)C)cc3)C2=O)cc1 : 15.5 µM

response.value for CCOc1ccccc1NC(=O)CCc1nnc2s/c(=C\CCc3ccccc3)c(=O)n12 (field: TGI) = > 100 µM

Per the record, CCOC(=O)CCC(C(=O)OCC)n1nc2ccc(Nc3c(C)[n+]([O-])c4cc(Cl)ccc4[n+]3[O-])cc2n1 (configuration not stated) has TGI of > 100 µM

Sample COc1cc2c3c(n(CCCN4CCN(C)CC4)c(=O)c2cc1OC)-c1cc2c(cc1C3=O)OCO2 ; TGI observed: 36.1 µM

Recorded TGI (compound Clc1ccc(OCc2nnc3sc(-c4ccc(-c5ccc(Cl)cc5Cl)o4)nn23)c(Cl)c1 ): 49.9 µM

TGI in this record for Cn1c(C(C#N)c2cc(Cl)ncn2)nc2ccccc21 (configuration not stated) : > 100 µM

###

- Tested on: MCF7 breast
- ASSAY_SUMMARY: NCI tumour cell line growth inhibition, 48 h
OUTCOME_MEASURE: TGI

Answered cases to consult:
COc1ccc(/C=C(/C(=O)N2CCCC2)c2cc(OC)c(OC)c(OC)c2)cc1N: > 100 µM
Clc1ccc(OCc2nnc3sc(-c4ccc(-c5ccc(Cl)cc5Cl)o4)nn23)c(Cl)c1: > 100 µM
C=C(CNCCc1ccc(O)cc1)[C@@H]1CC[C@]2(CO)CC[C@]3(C)[C@H](CC[C@@H]4[C@@]5(C)CCC(=O)C(C)(C)[C@@H]5CC[C@]43C)[C@@H]12: 3.84 µM
Nc1nc2c(c3ncccc13)C(c1cccc(Cl)c1)Cc1ncccc1-2 (stereo not given): 17.6 µM
OCCSCCCSCCO: > 100 µM

TGI for COC(=O)C1=NN2c3ccccc3C(=O)OCCC2C1 (stereo not given) is > 100 µM

Input Cn1c(-c2csc(-c3ccc(Cl)cc3)n2)n[nH]c1=S . Output TGI: > 100 µM

Field TGI (entry O=C(Nc1cnn2ccc(N3CCC[C@@H]3c3cc(F)ccc3F)nc12)N1CC[C@H](O)C1 ) reads > 100 µM

Item: Nc1ccc(C#Cc2cncnc2Nc2ccc(OCc3cccc(F)c3)c(Cl)c2)cc1 | TGI: > 25 µM

Form field TGI, entry N#CCCC(CC#N)N1CCN(CCO)CC1 (stereo not given) : > 100 µM

For reference, reported TGI for O=S(=O)(O)CCS stands at > 100 µM

// sample CC1(C)OCC2OC3([C@H](O)CCO)OC(C)(C)OC3C2O1 (stereo not given in full) , its TGI was > 100 µM

For this compound ( Nc1c(C(=O)c2cccc(OCCN3CCOCC3)c2)cnn1-c1ccc(F)cc1 ), measured TGI is > 25 µM

Measured TGI, COc1ncc(-c2nc3c(n2C(C)C)[C@H](c2ccc(Cl)cc2)N(c2cc(Cl)cn(C)c2=O)C3=O)c(OC)n1 : > 100 µM

Value of TGI reported for the compound COC(=O)[C@H]1[C@H](C(=O)OC)[C@@H](C)c2c(ccc3c2[nH]c2ccccc23)[C@@H]1C is > 100 µM

Entry COc1cccc(NCC(=O)Nn2c(-c3ccccc3)nc3ccccc3c2=O)c1 ; TGI = > 100 µM

Form field TGI, entry COC(=O)c1ccccc1NC(=O)C(=O)CC(=O)c1ccccc1NC1=CC(=O)C(=O)c2ccccc21 : 25.5 µM

Just so you know, measured TGI for COC(=O)[C@]12CC[C@@H](C)[C@H](C)[C@@H]1C1=CC[C@@H]3[C@@]4(C)C(C=O)=C[C@@](C)(COC(C)=O)[C@@H]4[C@H](O)C[C@@]3(C)[C@]1(C)CC2 came out at 5.51 µM

The compound listed as CC1=C(C(=O)OCCO[N+](=O)[O-])C(c2ccccc2C(F)(F)F)C(C(=O)OC(C)C)=C(C)N1 (stereo not given) shows TGI equal to 75.1 µM

For record COc1cc(/C=C/C(=O)c2cc(F)c(Cl)cc2Cl)cc(OC)c1OC the listed TGI is > 100 µM

###

- Test system: PC-3 prostate
- ASSAY_SUMMARY: NCI tumour cell line growth inhibition, 48 h
Readings of log10 TGI for the listed compounds
Please interpret these as log10 of TGI where TGI is in µM.

Lab note: O=C1CC(Br)c2c(Cl)sc(Cl)c21 (stereo not given) gave log10 TGI of 1.37

# log10 TGI (compound: c1ccc2nc3[nH]c4ccccc4c3cc2c1 ) is 0.61

Record summary for COc1cc(/C=C/C(=O)c2cc(F)c(Cl)cc2Cl)cc(OC)c1OC : reported log10 TGI = 1.93

log10 TGI for CN(C)c1ccc(/C=C/c2sc3ccc4ccccc4c3[n+]2C)cc1 is 0.23

The compound COC(=O)C(NC(=O)CNC(=O)CSc1nnc(COc2ccc(Cl)cc2)n1-c1ccccc1)C(C)C (stereo not given) showed log10 TGI equal to 1.52

###

- System: OVCAR-8 ovarian
- ASSAY_SUMMARY: NCI tumour cell line growth inhibition, 48 h
OUTCOME_MEASURE: TGI

Consider the worked cases shown below.
Clc1ccc(OCc2nnc3sc(-c4ccc(-c5ccc(Cl)cc5Cl)o4)nn23)c(Cl)c1: 32.1 µM
COc1ccc(/C(Cl)=C(\C=O)c2ccc(F)cc2)cc1: > 100 µM
N#CCCC(CC#N)N1CCN(CCO)CC1 (stereo unspecified): > 100 µM
N#C/C(=C/c1cccnc1)C(=O)c1ccccc1: > 100 µM
N=c1c2c3n(c4c(=O)n(-c5ccccc5)c(=S)n(c(=O)n1-c1ccccc1)c24)CCCCC3: > 100 µM

Measured TGI of O=C(CSc1nnc(Cc2ccccc2)o1)Nc1ccc(Cl)cc1 : > 100 µM

###

- Test system: OVCAR-8 ovarian
- ASSAY_SUMMARY: NCI tumour cell line growth inhibition, 48 h
OUTCOME_MEASURE: TGI

O=C(Oc1ccc([N+](=O)[O-])cc1)N1CCN(Cc2cccc(Oc3ccccc3)c2)CC1: > 100 µM
COc1cc(/C=C2\N=C(c3ccccc3)N(C3Nc4cc5c(cc4S3)NC(N3C(=O)/C(=C/c4cc(OC)c(OC)c(OC)c4)N=C3c3ccccc3)S5)C2=O)cc(OC)c1OC (centres undefined): > 100 µM
O=[N+]([O-])CC(SCc1ccccc1)c1ccc2c(c1)OCO2 (centres undefined): 19.2 µM

Moving on to another compound below.
Per the record, O=C1/C(=C/c2ccccc2)SC(=Nc2ccccc2)N1Nc1ccccc1 has TGI of > 100 µM

###

- Test system: HS 578T breast
- ASSAY_SUMMARY: NCI tumour cell line growth inhibition, 48 h
# TGI per record follows

For Cn1c(-c2csc(-c3ccc(Cl)cc3)n2)n[nH]c1=S on HS 578T breast, measured TGI was 83.7 µM

###

GI50 reference
- Tested on: NCI-H23 lung
- ASSAY_SUMMARY: NCI tumour cell line growth inhibition, 48 h

Solved entries:
Nc1ccn(C2CSC(CO)O2)c(=O)n1 (stereo unspecified): > 1000 µM
Cn1ccc(=Nc2ccc(NC(=O)c3ccc(N=c4ccn(C)c5ccc([N+](=O)[O-])cc45)cc3)cc2)cc1: 43.9 µM
COc1ccc(-c2cnc(-c3ccc(F)cc3)[nH]2)cc1: 10.6 µM
O=C(Oc1ccc([N+](=O)[O-])cc1)N1CCN(Cc2cccc(Oc3ccccc3)c2)CC1: > 71.9 µM
COc1ncc(-c2nc3c(n2C(C)C)[C@H](c2ccc(Cl)cc2)N(c2cc(Cl)cn(C)c2=O)C3=O)c(OC)n1: > 100 µM

Lab note: measured GI50 of COC(=O)c1ccc(=O)c2nc3/c(=C/O)c(O)cc(=O)c3[nH]c12 was 0.514 µM

###

- System: HCC-2998 colon
- ASSAY_SUMMARY: NCI tumour cell line growth inhibition, 48 h
Entries and their TGI values follow.

NC1CC2C3CCC2C1C3=O (centres undefined): > 100 µM
O=C(CCCCCCCCC(=O)NN1C(=O)/C(=C\c2ccc(O)c(O)c2)SC1c1c(O)ccc2ccccc12)NN1C(=O)C(=Cc2ccc(O)c(O)c2)SC1c1c(O)ccc2ccccc12 (centres undefined): > 100 µM
Oc1ccc(-c2nc3cc(C(F)(F)F)ccc3n2CC2CCCN3CCCCC23)cc1 (centres undefined): 21.5 µM

Field TGI (entry Cc1ccc(NS(=O)(=O)c2cc(C(C)(C)C)ccc2OCCOCCOCCOc2ccc(C(C)(C)C)cc2S(=O)(=O)Nc2ccc(C)cc2)cc1 ) reads > 100 µM

According to the records, this compound Nc1nc2c(ncn2CCOC(c2ccccc2)P(=O)(O)O)c(=O)[nH]1 (centres undefined) displays TGI of > 100 µM

Please fill in: TGI reported for O=C1CC(Br)c2c(Cl)sc(Cl)c21 (centres undefined) = 24.4 µM

// TGI lookup, compound = C/C=C(/C)C(=O)O[C@@H]1c2c(C)coc2C[C@H]2CC[C@H](O)[C@H](C)[C@]21C , result: > 100 µM

Looking up Cc1cc(O)c2c(c1)C(=O)c1cc(O)cc(O)c1C2=O , I see its TGI listed as > 100 µM
